# target or system: Cdk4/CyclinD1 (Homo sapiens (Human), UniProt P11802)
# Sequence (P11802 whole entry): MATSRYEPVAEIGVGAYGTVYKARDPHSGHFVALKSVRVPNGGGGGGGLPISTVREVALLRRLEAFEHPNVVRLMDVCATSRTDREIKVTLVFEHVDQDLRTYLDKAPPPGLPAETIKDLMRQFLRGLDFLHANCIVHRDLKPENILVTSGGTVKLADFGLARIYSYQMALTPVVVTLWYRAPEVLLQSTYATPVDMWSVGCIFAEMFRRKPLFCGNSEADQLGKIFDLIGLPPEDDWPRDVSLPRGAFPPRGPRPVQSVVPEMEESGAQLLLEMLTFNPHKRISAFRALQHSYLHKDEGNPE
# Sequence (P24385 whole entry partner): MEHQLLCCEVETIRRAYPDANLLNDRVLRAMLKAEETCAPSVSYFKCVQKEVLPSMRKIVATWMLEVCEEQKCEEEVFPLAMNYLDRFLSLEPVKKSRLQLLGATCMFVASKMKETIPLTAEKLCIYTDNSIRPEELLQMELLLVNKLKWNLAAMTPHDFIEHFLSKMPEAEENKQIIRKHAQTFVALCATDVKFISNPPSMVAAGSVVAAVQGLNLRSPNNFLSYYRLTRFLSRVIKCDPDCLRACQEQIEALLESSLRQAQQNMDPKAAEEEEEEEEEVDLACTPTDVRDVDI
# assay overview: Cdk4 kinase inhibition assay with recombinant Cdk4/CyclinD1, Rb substrate, [33P]-ATP filter plate
# settings: 25 μM ATP, read-out: Cdk 4 IC50
Here, each record is paired with measured log10 IC50 data.
property: log10 IC50 (log10 of the value in nM)

> print(dat)
                                   compound    property  reported
1  CN(CCO)C1CCN(c2ccc(Nc3ncc4c5ccncc5n(C5CCCC5)c4n3)nc2)CC1 [Example 457]  log10 IC50      1.28
2  c1cc2c3cnc(Nc4ccc(C5CCNCC5)cn4)nc3n(C3CCCC3)c2cn1 [Example 257]  log10 IC50      0.85
3  Cc1nccc2c3cnc(Nc4ccc(N5CCNCC5)cn4)nc3n(C3CCCC3)c12 [Example 54]  log10 IC50      1.30
4  C[C@H]1CN(c2ccc(Nc3ncc4c5ccncc5n([C@@H]5CCOC5)c4n3)nn2)CCN1 [Example 429]  log10 IC50      1.96
5  CNC1CCN(c2ccc(Nc3ncc4c5ccncc5n([C@@H]5CCOC5)c4n3)nn2)CC1 [Example 428]  log10 IC50      1.77
6  CN(C)C1CCN(c2ccc(Nc3ncc4c5cc[nH]c(=O)c5n(C5CCCC5)c4n3)nn2)CC1 [Example 127]  log10 IC50      0.72
7  COc1ccc(-c2ccc(Nc3ncc4c5ccncc5n(C5CCCC5)c4n3)nn2)cn1 [Example 261]  log10 IC50      2.37
8  CC1(C)CCC(n2c3nc(Nc4ccc(N5CCNCC5)cn4)ncc3c3ccnc(O)c32)CC1 [Example 208]  log10 IC50      0.26
